# TARGET DESC: Serum paraoxonase/arylesterase 1 (Homo sapiens)
# Sequence (P27169 whole entry): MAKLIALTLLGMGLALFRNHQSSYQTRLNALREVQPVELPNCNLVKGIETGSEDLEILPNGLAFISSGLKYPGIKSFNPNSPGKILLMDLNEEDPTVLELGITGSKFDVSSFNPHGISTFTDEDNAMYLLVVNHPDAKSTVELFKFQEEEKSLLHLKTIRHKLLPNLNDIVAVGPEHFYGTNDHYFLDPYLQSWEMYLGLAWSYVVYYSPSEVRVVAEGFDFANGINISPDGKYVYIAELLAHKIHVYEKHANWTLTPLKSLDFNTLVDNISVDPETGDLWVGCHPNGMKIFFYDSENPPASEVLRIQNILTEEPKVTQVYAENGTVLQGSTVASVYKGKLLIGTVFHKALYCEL
# MEASUREMENT NOTES: Enzyme Activity Assay
# Procedure: The enzyme assay was based on the estimation of p-nitrophenol at 412 nm. Paraoxonase activity was determined spectrophotometrically using the same procedure in our previous studies [Ekinci et al., Eur. J. Pharmacol., 617:84-89]. One enzyme unit was defined as the amount of enzyme that catalyzes the hydrolysis of 1 μmol of substrate at 25°C.
# note: boundary value 800 µM maps to Not met; IC50 below it maps to Met

* O=C(c1cc(O)c(O)cc1Br)c1c(O)c(O)cc(Br)c1Br | Not met
* O=C(c1ccc(O)c(O)c1)c1c(O)c(O)cc(Br)c1Br | Not met
* COc1ccc(C(=O)c2cccc(OC)c2OC)cc1OC | Not met
* COc1cc(C(=O)c2c(Br)c(Br)cc(OC)c2OC)cc(Br)c1OC | Met
* O=C(c1cc(O)c(O)c(Br)c1)c1c(O)c(O)cc(Br)c1Br | Met
* COc1cc(Br)c(C(=O)c2c(Br)c(Br)cc(OC)c2OC)cc1OC | Met
* COc1ccc(C(=O)c2c(Br)c(Br)cc(OC)c2OC)cc1OC | Met

This collection of values is drawn from BindingDB's records for doi:10.3109/14756366.2012.715287.
